Attribution: ChEMBL document CHEMBL1153230

SYSTEM_NAME: UniProtKB P34972
Sequence (P34972 whole entry): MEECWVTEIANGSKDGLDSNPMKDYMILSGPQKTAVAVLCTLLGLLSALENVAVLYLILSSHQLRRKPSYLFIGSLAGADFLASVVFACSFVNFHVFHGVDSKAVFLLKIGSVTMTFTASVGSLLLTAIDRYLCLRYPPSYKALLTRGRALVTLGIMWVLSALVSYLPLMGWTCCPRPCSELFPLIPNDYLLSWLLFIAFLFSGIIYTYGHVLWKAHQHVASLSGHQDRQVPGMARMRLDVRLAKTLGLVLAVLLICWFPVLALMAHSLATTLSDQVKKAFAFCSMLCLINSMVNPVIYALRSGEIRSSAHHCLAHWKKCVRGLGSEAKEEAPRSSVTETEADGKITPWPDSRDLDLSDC
ASSAY_DETAILS: Agonist activity at human CB2 receptor relative to HU210
Type: functional
QUANTITY_MEASURED: Efficacy (%)
Return type: number; implicit unit %.

For orientation, consider the following solved cases.
C[C@@H]1CC[C@H](C)N1c1ccc(-c2cc3ccccc3o2)nn1 ... 70
Clc1cc(Cl)c(Cl)c(-c2ccc(N3CCOCC3)nn2)c1 ... 78
C[C@@H]1CC[C@H](C)N1c1ccc(-c2cccc3ncccc23)nn1 ... 75
Clc1cccc(-c2ccc(N3CCCC3)nn2)c1Cl ... 56

Identify the reported Efficacy for the following entry. Clc1cccc(-c2ccc(N3CCOCC3)cc2)c1Cl
86

Please indicate Efficacy recorded for Clc1cccc(-c2ncc(N3CCOCC3)cn2)c1Cl
92

Supply measured Efficacy of C[C@@H]1CC[C@H](C)N1c1ccc(-c2cncc3ccccc23)nn1 in your reply.
85

# return recorded Efficacy for input Clc1cccc(-c2cnc(N3CCOCC3)nn2)c1Cl
78

Let me know recorded Efficacy for C[C@@H]1CC[C@H](C)N1c1ccc(-c2cccc(Cl)c2Cl)nn1 , thanks.
83

Item COc1ccccc1-c1ccc(N2CCOCC2)nn1 : provide Efficacy
37

---

SYSTEM_NAME: Cannabinoid receptor 1 (Homo sapiens, UniProt P21554)
Sequence (P21554 whole entry): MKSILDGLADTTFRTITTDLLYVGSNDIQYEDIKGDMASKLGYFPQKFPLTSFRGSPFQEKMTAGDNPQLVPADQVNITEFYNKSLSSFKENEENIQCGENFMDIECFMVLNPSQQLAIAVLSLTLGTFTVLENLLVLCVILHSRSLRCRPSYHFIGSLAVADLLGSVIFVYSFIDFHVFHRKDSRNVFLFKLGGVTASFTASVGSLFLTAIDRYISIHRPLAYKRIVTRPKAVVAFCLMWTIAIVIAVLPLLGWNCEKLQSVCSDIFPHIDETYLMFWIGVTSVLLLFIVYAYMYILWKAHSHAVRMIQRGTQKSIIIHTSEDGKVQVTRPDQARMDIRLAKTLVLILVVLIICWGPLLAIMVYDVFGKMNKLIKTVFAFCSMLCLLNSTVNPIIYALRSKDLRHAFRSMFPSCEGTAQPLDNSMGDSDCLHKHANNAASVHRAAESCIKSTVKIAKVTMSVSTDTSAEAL
ASSAY_DETAILS: Agonist activity at human CB1 receptor
# EC50 listing for each entry below

Please review the entries below; each comes with its answer.
C[C@@H]1CC[C@H](C)N1c1ccc(-c2c[nH]c3ccccc23)nn1 ... > 31.6 µM
C[C@@H]1CC[C@H](C)N1c1ccc(-c2cccc(Cl)c2Cl)nn1 ... 2.51 µM
Clc1ccccc1-c1ccc(N2CCOCC2)nn1 ... > 31.6 µM
FC(F)(F)Oc1ccccc1-c1ccc(N2CCOCC2)nn1 ... > 31.6 µM
Cc1ccccc1-c1ccc(N2CCOCC2)nn1 ... > 31.6 µM

Using the record for Clc1cccc(-c2ccc(N3CCCCC3)nn2)c1Cl , state its measured EC50.
> 31.6 µM

Given C[C@@H]1CC[C@H](C)N1c1ccc(-c2cccc3cnccc23)nn1 , respond with its EC50.
20 µM

Report EC50 for C[C@@H]1CC[C@H](C)N1c1ccc(-c2cccc3ncccc23)nn1
> 31.6 µM

For the compound Clc1cccc(-c2ccc(NC3CCOCC3)nn2)c1Cl , report EC50.
> 31.6 µM

Return EC50 (reported value) for this compound: Clc1cccc(-c2ccc(N3CCCC3)nn2)c1Cl
> 31.6 µM

Please give measured EC50 of the following entry: Cc1cccc(-c2ccc(N3CCOCC3)nn2)c1C
> 31.6 µM

Complete the entry with EC50 for FC(F)(F)c1cccc(-c2ccc(N3CCOCC3)nn2)c1
> 31.6 µM

Note down EC50 recorded for Clc1cccc(-c2ccc(N3CCOCC3)nn2)c1Cl
> 31.6 µM

Identify measured EC50 associated with FC(F)(F)c1ccccc1-c1ccc(N2CCOCC2)nn1
> 31.6 µM
